# experimental-target: recombinant JAK3 (catalytic domain, aa 781-1124) (Homo sapiens (Human))
# Sequence (P52333 781-1124): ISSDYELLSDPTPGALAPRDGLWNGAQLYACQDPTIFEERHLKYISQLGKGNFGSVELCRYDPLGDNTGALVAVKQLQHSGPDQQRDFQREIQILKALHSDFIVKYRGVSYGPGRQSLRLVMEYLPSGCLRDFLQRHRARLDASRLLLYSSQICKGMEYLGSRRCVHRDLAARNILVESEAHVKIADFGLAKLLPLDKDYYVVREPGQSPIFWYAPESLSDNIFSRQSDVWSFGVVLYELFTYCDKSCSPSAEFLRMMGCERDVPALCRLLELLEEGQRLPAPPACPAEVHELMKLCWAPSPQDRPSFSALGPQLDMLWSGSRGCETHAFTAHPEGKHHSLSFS
# assay-overview: JAK3 Caliper Peptide Phosphorylation Assay
# test-context: fluorescently labeled Srctide substrate 1 uM; ATP at 1×Km (2 uM); 2 hours at 25° C.
property: IC50

CN(C)C(=O)C(C#N)=Cc1cccc(Oc2ncnc3[nH]ccc23)c1 = > 1000 nM
CN(C)C(=O)C(C#N)=Cc1ccc(N(C)c2ncnc3[nH]ccc23)cc1 = > 1000 nM
CN(C)C(=O)C(C#N)=Cc1cccc(Nc2cnc3[nH]ccc3n2)c1 = > 1000 nM
Cc1ccc(Nc2ncnc3[nH]ccc23)cc1C=C(C#N)C(=O)N(C)C = > 5000 nM
CN(C)C(=O)C(C#N)=Cc1cccc(N(C)c2ncnc3[nH]ccc23)c1 = > 1000 nM
